# pIC50 listing for each entry below
Target: human serotonin 3 receptor (human 5-HT3 receptor) (Homo sapiens (Human))
Sequence (P46098 24-478): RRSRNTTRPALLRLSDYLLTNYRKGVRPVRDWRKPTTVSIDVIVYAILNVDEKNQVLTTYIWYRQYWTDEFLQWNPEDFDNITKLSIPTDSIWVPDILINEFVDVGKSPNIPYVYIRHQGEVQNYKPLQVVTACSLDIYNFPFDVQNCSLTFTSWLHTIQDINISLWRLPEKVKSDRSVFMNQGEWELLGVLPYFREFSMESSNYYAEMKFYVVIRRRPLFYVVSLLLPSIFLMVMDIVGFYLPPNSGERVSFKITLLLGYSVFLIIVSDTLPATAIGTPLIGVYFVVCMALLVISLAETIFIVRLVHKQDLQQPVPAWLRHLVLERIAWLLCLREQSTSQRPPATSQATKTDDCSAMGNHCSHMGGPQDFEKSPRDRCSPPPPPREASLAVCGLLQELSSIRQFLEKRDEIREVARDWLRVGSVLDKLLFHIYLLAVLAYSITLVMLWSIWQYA
pIC50: −log10 of the molar value.

Solved entries:
{"mol.smiles": "CNC1CN(c2nc3ncc(Br)cc3n3cnnc23)C1", "pIC50": 5.04}
{"mol.smiles": "CNC1CN(c2nc3ncc(I)cc3n3cnnc23)C1", "pIC50": "< 5.00"}
{"mol.smiles": "CNC1CN(c2nc3ncc(Cl)cc3n3nnnc23)C1", "pIC50": "< 5.00"}
{"mol.smiles": "CNC1CN(c2nc3ncc(Br)cc3n3nnnc23)C1", "pIC50": "< 5.00"}

Please find the next compound below.
Write down the reported pIC50 of CNC1CN(c2nc3ncc(C#N)cc3n3cnnc23)C1 , test system: human serotonin 3 receptor (human 5-HT3 receptor) (Homo sapiens (Human)).
< 5.00
